STUDY TARGET: HLA-B*58:01
RUN DESCRIPTION: IEDB peptide-MHC binding, purified MHC/direct/fluorescence; filed as Kd, often an IC50 or EC50 that approximates it; bounds were set here for any values at or beyond the usual limits of such assays
MEASUREMENT CONTEXT: source organism: Vibrio cholerae
pKd: −log10 of the molar value.
Give measured pKd for each item. Keep answers brief.

// pKd lookup, key: "IPISGRITA"
≤ 4.70

// pKd lookup, key: "KEDPGDHIF"
≤ 4.70

====

STUDY TARGET: HLA-A*02:06
RUN DESCRIPTION: IEDB peptide-MHC binding, purified MHC/direct/fluorescence; filed as Kd, often an IC50 or EC50 that approximates it; bounds were set here for any values at or beyond the usual limits of such assays
MEASUREMENT CONTEXT: source organism: Vibrio parahaemolyticus AQ3810
ENDPOINT NAME: pKd
Please report pKd as the negative decimal logarithm of the molar concentration, giving only the number.

// pKd lookup, key: "HQFTSNPEV"
8.10

====

STUDY TARGET: HLA-B*27:05
RUN DESCRIPTION: IEDB peptide-MHC binding, purified MHC/competitive/fluorescence; filed as Kd, often an IC50 or EC50 that approximates it; bounds were set here for any values at or beyond the usual limits of such assays
MEASUREMENT CONTEXT: source organism: Entamoeba histolytica HM-1:IMSS
ENDPOINT NAME: Kd

// Kd lookup, key: "EVRKAIEFV"
≥ 5 µM

====

STUDY TARGET: HLA-A*02:01
RUN DESCRIPTION: IEDB peptide-MHC binding, purified MHC/competitive/fluorescence; bounds were set here for any values at or beyond the usual limits of such assays
MEASUREMENT CONTEXT: source organism: Zaire ebolavirus
pIC50: −log10 of the molar value.
Give measured pIC50 for each item. Keep answers brief.

// pIC50 lookup, key: "QLIIQAFEA"
6.05

// pIC50 lookup, key: "GVVAFLILP"
4.27

// pIC50 lookup, key: "NLSGVNNLE"
≤ 3.64

// pIC50 lookup, key: "HKIMASENS"
≤ 3.60

// pIC50 lookup, key: "LRTFSILNR"
≤ 3.61

// pIC50 lookup, key: "AALSSLAKH"
≤ 4.01

// pIC50 lookup, key: "MGVTGILQL"
4.28

// pIC50 lookup, key: "TELRTFSIL"
≤ 3.40

// pIC50 lookup, key: "AMVQVHSQG"
≤ 3.99

// pIC50 lookup, key: "DTGEESASS"
≤ 3.37

// pIC50 lookup, key: "TNAMVTLRK"
≤ 2.96

// pIC50 lookup, key: "NQDGLICGL"
4.55

// pIC50 lookup, key: "IPLGVIHNS"
≤ 3.73

// pIC50 lookup, key: "FLDPATTTS"
5.75

// pIC50 lookup, key: "MNAPDDLVL"
≤ 3.79

// pIC50 lookup, key: "FHKEGAFFL"
≤ 4.01

// pIC50 lookup, key: "LVVGEKACL"
≤ 3.94

// pIC50 lookup, key: "VLYYHMMKD"
4.32

// pIC50 lookup, key: "QIIHDFVDK"
≤ 3.58

// pIC50 lookup, key: "RYQATGFGT"
≤ 3.65

// pIC50 lookup, key: "LLQLNETIY"
≤ 4.11
